Each recorded value in this set is attributed to patent US5914329A.

- TEST SUMMARY: Aqueous solubility of salts
- SETUP CONDITIONS: solubility, dimesylate salt; medium not stated
ENDPOINT NAME: solubility (mg/mL)
All answers are understood in mg/mL, so give the number only.

Find the recorded solubility belonging to CCOc1cccc(C2(N3CCN(c4ccccc4)CC3)CCC(C)CC2)c1 (stereo not shown) [compound I] and report it.
31

====

- TEST SUMMARY: Aqueous solubility of salts
- SETUP CONDITIONS: water, Aqueous solubility, isolated form A of the dimesylate salt
ENDPOINT NAME: solubility (mg/mL)
All answers are understood in mg/mL, so give the number only.

Find the recorded solubility belonging to CCOc1cccc(C2(N3CCN(c4ccccc4)CC3)CCC(C)CC2)c1 (stereo not shown) [form A] and report it.
31

====

- TEST SUMMARY: Aqueous solubility of salts
- SETUP CONDITIONS: water, water solubility
Counter-ions that a name gives are not always drawn.
ENDPOINT NAME: solubility (µg/mL)
All answers are understood in µg/mL, so give the number only.

Find the recorded solubility belonging to CCOc1cccc(C2(N3CCN(c4ccccc4)CC3)CCC(C)CC2)c1 (stereo not shown) [dihydrochloride, reference compound] and report it.
1000
